Measured values drawn from patent US20100076024A1 for this set.

# system: recombinant human DPP-4 (Homo sapiens, UniProt P27487)
# Sequence (P27487 whole entry): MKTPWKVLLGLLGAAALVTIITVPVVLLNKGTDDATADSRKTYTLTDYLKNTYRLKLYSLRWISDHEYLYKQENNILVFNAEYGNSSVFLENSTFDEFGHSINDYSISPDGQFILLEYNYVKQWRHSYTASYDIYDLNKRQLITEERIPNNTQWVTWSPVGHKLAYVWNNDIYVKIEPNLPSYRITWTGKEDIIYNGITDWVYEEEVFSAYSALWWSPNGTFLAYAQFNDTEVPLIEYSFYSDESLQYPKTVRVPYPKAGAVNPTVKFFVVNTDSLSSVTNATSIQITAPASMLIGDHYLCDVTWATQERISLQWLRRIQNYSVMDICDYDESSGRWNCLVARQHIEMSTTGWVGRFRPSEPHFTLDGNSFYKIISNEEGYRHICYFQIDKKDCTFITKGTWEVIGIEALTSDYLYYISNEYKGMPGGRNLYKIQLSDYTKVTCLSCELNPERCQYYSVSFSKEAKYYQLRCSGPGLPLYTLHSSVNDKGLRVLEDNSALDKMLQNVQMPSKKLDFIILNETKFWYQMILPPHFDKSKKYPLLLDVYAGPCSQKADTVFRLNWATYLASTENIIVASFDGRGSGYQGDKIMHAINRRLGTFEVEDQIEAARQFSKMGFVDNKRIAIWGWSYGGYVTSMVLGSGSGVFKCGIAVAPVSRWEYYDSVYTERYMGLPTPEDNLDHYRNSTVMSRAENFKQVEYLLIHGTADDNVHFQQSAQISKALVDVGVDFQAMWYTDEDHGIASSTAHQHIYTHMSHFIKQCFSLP
# test description: recombinant human DPP-4 fluorogenic substrate cleavage assay
# Assay type: biochemical
# recorded conditions: compound 10 uM; substrate (H-Ala-Pro)-2-Rh110 10 μM; 1 hour pre-incubation, room temperature; read-out: % Inhib at 10 uM
quantity kind: inhibition at 10 µM (%)
Reply with just the number (in %).

{"columns": ["molecule", "system", "number"],
 "data": [
  ["COc1cccc(C2CCCN(CC[C@H](N)Cc3cc(F)c(F)cc3F)C2)c1 (some centres unmarked)", "recombinant human DPP-4 (Homo sapiens, UniProt P27487)", 97.9],
  ["COc1cccc(C2CCN(CC[C@H](N)Cc3cc(F)c(F)cc3F)C2)c1 (some centres unmarked)", "recombinant human DPP-4 (Homo sapiens, UniProt P27487)", 99.2],
  ["COc1ccccc1C1CCN(CC[C@H](N)Cc2cc(F)c(F)cc2F)C1 (some centres unmarked)", "recombinant human DPP-4 (Homo sapiens, UniProt P27487)", 99.2],
  ["N[C@@H](CCN1CCC(c2ccc(C(F)(F)F)cc2)C1)Cc1cc(F)c(F)cc1F (some centres unmarked)", "recombinant human DPP-4 (Homo sapiens, UniProt P27487)", 99.1]
]}

Which value of inhibition at 10 µM has been reported for N[C@@H](CCN1CCC(c2ccccc2)C1)Cc1cc(F)c(F)cc1F (some centres unmarked) in the records?
99.6

====

# system: recombinant human DPP-4 (Homo sapiens, UniProt P27487)
# test description: recombinant human DPP-4 fluorogenic substrate cleavage assay
# Assay type: biochemical
# recorded conditions: compound 10 uM; substrate (H-Ala-Pro)-2-Rh110 10 μM; 1 hour pre-incubation, room temperature; read-out: % Inhib at 10 uM
# Procedure: For compound screening, the assay employed measures the activity of recombinant human DPP-4 to cleave the synthetic fluorogenic substrate (H-Ala-Pro)-2—Rh110. The reaction is run in 384-well plates. […] The product of the reaction is quantified by measuring the fluorescence intensity using Tecan Ultraplate reader. For each compound concentration tested, the percent of inhibition is calculated. […]
quantity kind: inhibition at 10 µM (%)
Numeric only. Scale: %

Here is how some compounds turned out for inhibition at 10 µM.
{"columns": ["compound", "inhibition at 10 µM / %"],
 "data": [
  ["COCC1CCCN(CC[C@H](N)Cc2cc(F)c(F)cc2F)C1 (stereo partly drawn)", 99.5],
  ["N[C@@H](CCN1CCC(c2ccccc2Cl)C1)Cc1cc(F)c(F)cc1F (stereo partly drawn)", 99.5],
  ["Cc1cccc(C2CCCN(CC[C@H](N)Cc3cc(F)c(F)cc3F)C2)c1 (stereo partly drawn)", 99.7]
]}

Tell me reported inhibition at 10 µM for CC1CCCN(CC[C@H](N)Cc2cc(F)c(F)cc2F)C1 (stereo partly drawn) , tested with recombinant human DPP-4 (Homo sapiens, UniProt P27487).
98.6

# returns recorded inhibition at 10 µM (system: recombinant human DPP-4 (Homo sapiens, UniProt P27487)) for Cc1ccc(C2CCCN(CC[C@H](N)Cc3cc(F)c(F)cc3F)C2)cc1 (stereo partly drawn)
99.6

Missing value: inhibition at 10 µM, recombinant human DPP-4 (Homo sapiens, UniProt P27487), entry N[C@@H](CCN1CCCC(c2cccc(F)c2)C1)Cc1cc(F)c(F)cc1F (stereo partly drawn) . Fill in?
99.7

Query for recombinant human DPP-4 (Homo sapiens, UniProt P27487): what inhibition at 10 µM does the record show for N[C@@H](CCN1CCCCC1)Cc1cc(F)c(F)cc1F ?
99.3

Record N[C@@H](CCN1CCC(c2cccc(Cl)c2)C1)Cc1cc(F)c(F)cc1F (stereo partly drawn) : what is its inhibition at 10 µM with recombinant human DPP-4 (Homo sapiens, UniProt P27487)?
99.3

Hi! What's the reported inhibition at 10 µM for COc1ccccc1C1CCCN(CC[C@H](N)Cc2cc(F)c(F)cc2F)C1 (stereo partly drawn) on recombinant human DPP-4 (Homo sapiens, UniProt P27487)?
98.9
